- subjectOfTest: D-dimer (cross-linked fibrin degradation product) (Homo sapiens, UniProt P02671;P02675;P02679 SEQ:1-87,SEQ:1-328,SEQ:1-324)
- Sequence (P02671 130-216, chain 1 of 3): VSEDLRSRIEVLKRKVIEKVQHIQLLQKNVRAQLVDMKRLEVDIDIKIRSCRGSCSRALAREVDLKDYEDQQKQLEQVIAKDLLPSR
- Sequence (P02675 164-491, chain 2 of 3): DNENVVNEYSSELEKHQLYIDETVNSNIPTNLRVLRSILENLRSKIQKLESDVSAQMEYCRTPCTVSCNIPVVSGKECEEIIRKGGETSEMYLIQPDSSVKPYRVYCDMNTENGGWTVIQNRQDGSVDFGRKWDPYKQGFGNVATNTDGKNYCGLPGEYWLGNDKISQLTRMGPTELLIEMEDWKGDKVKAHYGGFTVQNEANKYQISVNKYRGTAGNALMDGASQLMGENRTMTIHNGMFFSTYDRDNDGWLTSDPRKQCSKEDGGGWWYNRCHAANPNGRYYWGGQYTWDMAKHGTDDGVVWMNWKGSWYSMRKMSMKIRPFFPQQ
- Sequence (P02679 other isoform, or with tags, fused parts or gaps, chain 3 of 3): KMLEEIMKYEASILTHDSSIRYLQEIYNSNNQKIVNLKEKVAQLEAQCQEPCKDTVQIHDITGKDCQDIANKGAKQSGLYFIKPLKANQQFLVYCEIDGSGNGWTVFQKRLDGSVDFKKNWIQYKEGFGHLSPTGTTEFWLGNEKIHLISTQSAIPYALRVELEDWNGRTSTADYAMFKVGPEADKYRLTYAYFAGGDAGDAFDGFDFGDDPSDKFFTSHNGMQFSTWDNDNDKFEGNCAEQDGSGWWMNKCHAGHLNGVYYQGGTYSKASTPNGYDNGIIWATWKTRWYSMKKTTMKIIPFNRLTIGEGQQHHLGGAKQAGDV
- assayDetails: ELONA; estimated from saturation curve; text says 5' biotin, FIG. 6 legend says 3' biotin
- cond: tags: none stated; about 180 kDa; chain copies: 2 of each chain (inferred); label: 5' biotin
pKd: −log10 of the molar value.
measurementKind: pKd

Param item = GCGCGGTCCCGATTTGGTGTAAAATTCCCTCAGCCCTACA (ssDNA) [5'Biotin-ADI1701] ; retrieve measured pKd.
~8.00
